biological target: Aryl hydrocarbon receptor (Homo sapiens); assay: ATG_Ahr_CIS: Attagene CIS-FACTORIAL HepG2 Assay for human Aryl Hydrocarbon Receptor (Ahr) (AID 2282930); conditions: HepG2 AhR cis-factorial reporter transcription; actives raise or lower the signal
Activity calls are given as the source filed them. How the source made its calls: active means hit-call score of the fitted dose curve at least 0.9, where 1 is the maximum; inactive means score below 0.9.
The reply should name one outcome from active, inactive

QUERY: // param item: `COC(=O)c1ccccc1` ; yields the recorded call
RESULT: inactive

QUERY: Then what about the compound `CCCCCCCCCCCCCC` ?
RESULT: inactive

QUERY: Then what about the compound `CN(C)c1ccc(C(c2ccccc2)c2ccc(N(C)C)cc2)cc1` ?
RESULT: inactive

QUERY: Then what about the compound `Cc1cc(C)c(S(=O)(=O)O)cc1N=Nc1cc(S(=O)(=O)O)c2ccccc2c1O` ?
RESULT: active

QUERY: Then what about the compound `O=C(O)c1cc(Cl)cc(Cl)c1O` ?
RESULT: active

QUERY: Then what about the compound CN(C)CCC(c1ccc(Cl)cc1)c1ccccn1 (stereo unspecified) ?
RESULT: inactive
